Origin of the recorded values: ChEMBL document CHEMBL2163236

molecular target: Cannabinoid receptor 2 (Homo sapiens, UniProt P34972); assay: Displacement of [3H]CP-55940 from human recombinant CB2 receptor expressed in CHO cell membranes incubated for 60 mins by scintillation counting
Sequence (P34972 whole entry): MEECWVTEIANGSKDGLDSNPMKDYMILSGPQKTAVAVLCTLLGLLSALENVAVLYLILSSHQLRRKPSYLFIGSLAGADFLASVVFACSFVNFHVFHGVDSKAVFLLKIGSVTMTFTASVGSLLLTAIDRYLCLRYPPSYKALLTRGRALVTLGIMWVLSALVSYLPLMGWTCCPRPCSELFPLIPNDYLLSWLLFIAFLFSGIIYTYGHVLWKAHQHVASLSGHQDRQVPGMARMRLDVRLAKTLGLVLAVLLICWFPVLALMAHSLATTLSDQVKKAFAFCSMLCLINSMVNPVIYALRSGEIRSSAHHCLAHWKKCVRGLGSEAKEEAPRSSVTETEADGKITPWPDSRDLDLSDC
Property Measured: Ki (µM)

| Compound | Measured Target | Units Text | Sign Qualifier | Numeric Readout |
| --- | --- | --- | --- | --- |
| CC1COc2cccc3c(=O)c(C(=O)NC45CC6CC(CC(C6)C4)C5)cn1c23 (racemic) | Cannabinoid receptor 2 (Homo sapiens, UniProt P34972) | µM | = | 0.047 |
| CCC1COc2cccc3c(=O)c(C(=O)NC4C5CC6CC(C5)CC4C6)cn1c23 (racemic) | Cannabinoid receptor 2 (Homo sapiens, UniProt P34972) | µM | = | 0.0132 |
| Cc1ccc(C2COc3cccc4c(=O)c(C(=O)NC56CC7CC(CC(C7)C5)C6)cn2c34)cc1 (racemic) | Cannabinoid receptor 2 (Homo sapiens, UniProt P34972) | µM | = | 0.412 |
| Cc1cc2c3c(c1)c(=O)c(C(=O)NC1CCCCC1)cn3C(c1ccccc1)CO2 (racemic) | Cannabinoid receptor 2 (Homo sapiens, UniProt P34972) | µM | = | 0.0184 |
| O=C(NC12CC3CC(CC(C3)C1)C2)c1cn2c3c(cccc3c1=O)OC(c1ccccc1)C2c1ccccc1 (racemic) | Cannabinoid receptor 2 (Homo sapiens, UniProt P34972) | µM | > | 10 |
| CCC1COc2cccc3c(=O)c(C(=O)NC(C)CCC(C)C)cn1c23 (racemic) | Cannabinoid receptor 2 (Homo sapiens, UniProt P34972) | µM | = | 0.0158 |
| CCC1COc2c(F)c(F)cc3c(=O)c(C(=O)NC45CC6CC(CC(C6)C4)C5)cn1c23 (racemic) | Cannabinoid receptor 2 (Homo sapiens, UniProt P34972) | µM | = | 0.033 |
| CCCC1COc2cccc3c(=O)c(C(=O)NC45CC6CC(CC(C6)C4)C5)cn1c23 (racemic) | Cannabinoid receptor 2 (Homo sapiens, UniProt P34972) | µM | = | 0.00234 |
| CCC1COc2cccc3c(=O)c(C(=O)NC4CCCCC4)cn1c23 (racemic) | Cannabinoid receptor 2 (Homo sapiens, UniProt P34972) | µM | = | 0.022 |
| O=C(NC1CCCCC1)c1cn2c3c(cccc3c1=O)OCC2C1CC1 (racemic) | Cannabinoid receptor 2 (Homo sapiens, UniProt P34972) | µM | = | 0.0153 |
| CC[C@H]1COc2cccc3c(=O)c(C(=O)NC45CC6CC(CC(C6)C4)C5)cn1c23 | Cannabinoid receptor 2 (Homo sapiens, UniProt P34972) | µM | = | 0.088 |
| CC1COc2cccc3c(=O)c(C(=O)NC4CCCCC4)cn1c23 (racemic) | Cannabinoid receptor 2 (Homo sapiens, UniProt P34972) | µM | = | 0.06 |
| CCCC1COc2ccc(C)c3c(=O)c(C(=O)NC45CC6CC(CC(C6)C4)C5)cn1c23 (racemic) | Cannabinoid receptor 2 (Homo sapiens, UniProt P34972) | µM | = | 0.0104 |
| O=C(NC1CCCCC1)c1cn2c3c(cccc3c1=O)OCC2c1ccccc1 (racemic) | Cannabinoid receptor 2 (Homo sapiens, UniProt P34972) | µM | = | 0.00252 |
